This collection of values is drawn from paper PMC11249646.

Each record here notes measured CONFIRMATORY SCREEN Efficacy (%).
Molecular target: CIB1 and αIIb interaction (CIB1-GST : F-αIIb peptide) (Homo sapiens)
Construct: made in house; host or cells: BL-21 plus RIL cells (E. coli)
Assay: FP assay, 1536-well qHTS format (primary and confirmatory screen)
Type: binding
Conditions: confirmatory screen
Respond numerically; units are % and should not be typed.

Study these solved cases before continuing.
{"columns": ["COMPOUND", "VALUE_UNITS", "CONFIRMATORY SCREEN Efficacy (%)"],
 "data": [
  ["COc1ccc2c(=O)n3nc(Nc4cccc(N5CCN(C)CC5)c4)sc3nc2c1.Cl", "%", -43],
  ["O=C(c1ccccc1)c1c(O)cc(O)cc1O[C@@H]1O[C@H](CO)[C@@H](O)[C@H](O)[C@H]1O", "%", -21],
  ["CCN1C(=O)c2ccccc2[S+]([O-])c2ccc(C(=O)Nc3ncc(C)s3)cc21 (stereo not shown)", "%", -10],
  ["CC1CCC2(C1)N=C(Nc1nc3ccccc3o1)NC1=C2C(=O)CCC1.O=C(O)C(F)(F)F (stereo not shown)", "%", -33],
  ["C[C@H]1COC2=C1C(=O)C(=O)c1c2ccc2c1CCCC2(C)C", "%", 0],
  ["Cc1cc(NS(=O)(=O)c2ccc(NC(=O)Cc3ccc(F)c(Cl)c3)cc2)no1.O=C(O)C(F)(F)F", "%", -48]
]}

Request: Give CONFIRMATORY SCREEN Efficacy (%) for COc1cc2ccccc2cc1C(=O)N/C(S)=N/c1cc(C(=O)O)ccc1C.O=C(O)C(F)(F)F
Response: -38

Request: Give a short answer stating reported CONFIRMATORY SCREEN Efficacy (%) for O=C1C=CC(=O)N1c1ccc(N2CCOCC2)cc1 .
Response: -44

Request: In one line, give reported CONFIRMATORY SCREEN Efficacy (%) of the entry O=C(O)C(F)(F)F.O=C1CCC2=C1C1(CCCC1)N=C(Nc1nc3ccccc3o1)N2 .
Response: -27

Request: Please look at this compound and report its CONFIRMATORY SCREEN Efficacy (%): CCOc1ccc(CCNC(C)=O)cc1OCC.O=C(O)C(F)(F)F
Response: -11

###

Documented Efficacy (%) across a set of compounds
Target: CIB1 and αIIb interaction (CIB1-GST : F-αIIb peptide) (Homo sapiens)
Construct: made in house; host or cells: BL-21 plus RIL cells (E. coli)
Sequence (Q99828 1-191): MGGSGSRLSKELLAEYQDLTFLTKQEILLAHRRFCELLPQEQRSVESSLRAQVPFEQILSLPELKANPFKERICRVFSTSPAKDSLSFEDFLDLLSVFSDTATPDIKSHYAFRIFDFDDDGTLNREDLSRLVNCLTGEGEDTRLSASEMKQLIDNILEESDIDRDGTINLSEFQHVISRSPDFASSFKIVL
Test: FP assay, 1536-well qHTS format (primary and confirmatory screen)
Format: binding
Conditions: qHTS primary screen of LOPAC/NPACT libraries; negative = inhibition
Please state the figure in %; there is no need to write the unit.

Here's what some known entries look like.
{"columns": ["COMPOUND", "PROPERTY_MEASURED", "VALUE"],
 "data": [
  ["COc1cc(/C=C/c2ccccc2)c(C(=O)O)c(O)c1CC=C(C)C", "Efficacy (%)", -18],
  ["CN1C[C@H](C(=O)N[C@]2(C)O[C@@]3(O)[C@@H]4CCCN4C(=O)[C@H](Cc4ccccc4)N3C2=O)C[C@@H]2c3cccc4[nH]cc(c34)C[C@H]21.CS(=O)(=O)O", "Efficacy (%)", -32],
  ["CCOc1ccc(-c2cc(NC(=O)c3c(F)cccc3F)c(C(=O)O)s2)cc1", "Efficacy (%)", -21],
  ["Cc1cc(Cn2cnc3c2C[C@@H](C(=O)O)N(C(=O)C(c2ccccc2)c2ccccc2)C3)ccc1N", "Efficacy (%)", -10],
  ["C=CC(=O)Nc1cccc(Oc2nc(Nc3ccc(N4CCN(C)CC4)cc3)ncc2Cl)c1", "Efficacy (%)", -28]
]}

Request: Return value of Efficacy (%) for input Cc1c(O)cc2c(c1O)COC1(O)CCCOC21 (stereo not shown) , no commentary.
Response: -23

Request: Fill in reported Efficacy (%) for this entry: O=C(O)c1cc(O)c2cccc(O)c2c1O[C@@H]1O[C@H](CO)[C@@H](O)[C@H](O)[C@H]1O
Response: -31

Request: State its Efficacy (%): CN1CCN(c2ccc(C(=O)Nc3n[nH]c4ccc(Cc5cc(F)cc(F)c5)cc34)c(NC3CCOCC3)c2)CC1
Response: -21

Request: Please supply the value of reported Efficacy (%) for the item Cc1nnc(SCC2=C(C(=O)O)N3C(=O)[C@@H](NC(=O)Cn4cnnn4)[C@H]3SC2)s1
Response: -21

Request: Supply recorded Efficacy (%) for COc1cc2c(cc1OC)-c1[nH]nc(Nc3cccc(F)c3)c1C2 here.
Response: -25

Request: Give the value of Efficacy (%) reported for the following: CC(C)=CCc1ccc(Oc2c(O)cc(C)cc2CO)c(C(=O)O)c1O
Response: -26

Request: Could you please provide reported Efficacy (%) for C=C1C(=O)O[C@@H]2[C@H]1[C@H](O)C[C@]1(C)[C@@H](O)CC=C(C)[C@@H]21 ? Thanks!
Response: -29

Request: Read off the recorded Efficacy (%) for O=c1c(-c2ccc(O)cc2)coc2cc(O)ccc12
Response: -11

###

Target: CIB1 and αIIb interaction (CIB1-GST : F-αIIb peptide) (Homo sapiens, UniProt Q99828)
Construct: made in house; host or cells: BL-21 plus RIL cells (E. coli)
Assay: FP assay, 1536-well qHTS format (primary and confirmatory screen)
Format: binding
Conditions: confirmatory screen
PROPERTY_MEASURED: Efficacy (%) (confirmatory screen)
Give the value in % but do not write % after it.

// worked examples, Efficacy (%) (confirmatory screen) included
{"columns": ["STRUCTURE_SMILES", "EXPERIMENTAL_SYSTEM", "Efficacy (%) (confirmatory screen)"],
 "data": [
  ["COc1cc(Nc2c(C#N)cnc3cc(OCCCN4CCN(C)CC4)c(OC)cc23)c(Cl)cc1Cl", "CIB1 and αIIb interaction (CIB1-GST : F-αIIb peptide) (Homo sapiens, UniProt Q99828)", -73],
  ["O=C(O)c1cc(O)c2c(c1)C(=O)c1cccc(O)c1C2=O", "CIB1 and αIIb interaction (CIB1-GST : F-αIIb peptide) (Homo sapiens, UniProt Q99828)", -66],
  ["COc1nc2ccc(Br)cc2cc1[C@@H](c1ccccc1)[C@@](O)(CCN(C)C)c1cccc2ccccc12", "CIB1 and αIIb interaction (CIB1-GST : F-αIIb peptide) (Homo sapiens, UniProt Q99828)", -94]
]}

Pending compound:
Request: Give the value of Efficacy (%) (confirmatory screen) reported for the following: Oc1ccc(-c2nnn[nH]2)c2cccnc12
Response: -40

###

Molecular target: CIB1 and αIIb interaction (CIB1-GST : F-αIIb peptide) (Homo sapiens, UniProt Q99828)
Construct: made in house; host or cells: BL-21 plus RIL cells (E. coli)
Assay: FP assay, 1536-well qHTS format (primary and confirmatory screen)
Type: binding
Settings: qHTS FP screen hits, Table S2; one class per curve where COUNT > 1; negative sign = inhibitory curve
PROPERTY_MEASURED: Curve Class
Reply with the value as a number alone.

Solved cases below.
{"columns": ["COMPOUND", "EXPERIMENTAL_SYSTEM", "VALUE"],
 "data": [
  ["O=C1c2ccccc2C(=O)c2c1ccc(O)c2O", "CIB1 and αIIb interaction (CIB1-GST : F-αIIb peptide) (Homo sapiens, UniProt Q99828)", -2.1],
  ["CC[S+]([O-])c1nc(-c2cccc(OCc3ccccc3)c2)cc(C(F)(F)F)n1 (stereo not drawn)", "CIB1 and αIIb interaction (CIB1-GST : F-αIIb peptide) (Homo sapiens, UniProt Q99828)", -1.2],
  ["N#Cc1ccc(Nc2nc(-c3ccc(O)cc3O)cs2)cc1C(F)(F)F", "CIB1 and αIIb interaction (CIB1-GST : F-αIIb peptide) (Homo sapiens, UniProt Q99828)", -2.2],
  ["O=C(O)c1cnn(-c2nc3cc(Cl)c(OC(F)(F)F)cc3[nH]2)c1", "CIB1 and αIIb interaction (CIB1-GST : F-αIIb peptide) (Homo sapiens, UniProt Q99828)", -1.2],
  ["O=C(O)C(F)(F)F.c1ccc(-n2ccc(-c3nnc4n3CCCCC4)c2)cc1", "CIB1 and αIIb interaction (CIB1-GST : F-αIIb peptide) (Homo sapiens, UniProt Q99828)", -2.2],
  ["O=C(O)c1ccc(-n2cccc2/C=C2\\SC(=O)N(Cc3cccc(Cl)c3)C2=O)cc1", "CIB1 and αIIb interaction (CIB1-GST : F-αIIb peptide) (Homo sapiens, UniProt Q99828)", -2.2],
  ["CCCCCCCCOc1ccccc1C(=O)Nc1ccc(C(=O)OCC[N+](C)(CC)CC)cc1.[Br-]", "CIB1 and αIIb interaction (CIB1-GST : F-αIIb peptide) (Homo sapiens, UniProt Q99828)", -1.2],
  ["N#Cc1ccc(N2N=C3c4ccc(C(=O)O)cc4CC[C@@H]3[C@@H]2C2CCCC2)cc1Cl", "CIB1 and αIIb interaction (CIB1-GST : F-αIIb peptide) (Homo sapiens, UniProt Q99828)", -1.2],
  ["C=C(CC)C(=O)c1ccc(OCC(=O)O)c(Cl)c1Cl", "CIB1 and αIIb interaction (CIB1-GST : F-αIIb peptide) (Homo sapiens, UniProt Q99828)", -1.2],
  ["CN(C(=O)c1cccs1)c1cccnc1.O=C(O)C(F)(F)F", "CIB1 and αIIb interaction (CIB1-GST : F-αIIb peptide) (Homo sapiens, UniProt Q99828)", -2.2]
]}

Request: Tell us which Curve Class value is on record for CCOC(=O)c1nn(-c2ccc(OC)cc2)c(=O)c2c(N)scc12
Response: -1.2

Request: Indicate its recorded Curve Class; the compound in question is OC[C@H]1O[C@@H](Oc2ccc(O)c3cccc(O)c23)[C@H](O)[C@@H](O)[C@@H]1O
Response: -2.2

Request: Answer with the recorded Curve Class of O=C(NCCCN1CCNCC1)c1cccc(-c2cc(O)c3ncccc3c2)c1.O=C(O)C(F)(F)F only.
Response: -2.2

Request: Return the recorded Curve Class value; entry: CCN1CCN(c2ccc(Nc3ccc(-c4ccc(C(N)=O)cc4)n4ncnc34)cc2)CC1.O=C(O)C(F)(F)F
Response: -2.2

Request: Identify the reported Curve Class for the following entry. Fc1ccc(NC(=S)Nc2nnc(-c3ccncc3)s2)cc1C(F)(F)F.O=C(O)C(F)(F)F
Response: -2.2

Request: Give the value of Curve Class reported for the following: CCN(CC)CCN(Cc1ccc(-c2ccc(C(F)(F)F)cc2)cc1)C(=O)Cn1c(SCc2ccc(F)cc2)nc(=O)c2c1CCC2
Response: -2.2

Request: Supply measured Curve Class of CNc1ccc(C(=O)Oc2cc(ON=[N+]([O-])N(C)C)c([N+](=O)[O-])cc2[N+](=O)[O-])cc1 in your reply.
Response: -1.2

Request: Report Curve Class for O=C(O)CSc1cc(NS(=O)(=O)c2ccc(Br)cc2)c2ccccc2c1O
Response: -2.2

Request: Answer with the recorded Curve Class of O=C(O)C(F)(F)F.O=S(=O)(Nc1nc2ccccc2s1)c1ccc(NCc2ccc(Br)cc2O)cc1 only.
Response: -2.2

Request: Return Curve Class (reported value) for this compound: Cn1sc(=O)n(Cc2ccccc2)c1=O
Response: -1.2

Request: State its Curve Class for this compound: Cc1ccc(-c2csc(NC(=O)c3ccncc3NS(=O)(=O)c3ccc(C)cc3)n2)cc1.O=C(O)C(F)(F)F
Response: -1.2

Request: Consider the compound FC(F)(F)c1cccc(N2CCN(C(=S)Nc3nccc4cccnc34)CC2)c1.O=C(O)C(F)(F)F and give its recorded Curve Class.
Response: -1.2
